molecular target: Cholinesterase (Homo sapiens); experiment: Inhibition of human serum BuChE using butyrylthiocholine iodide as substrate preincubated with enzyme for 10 mins followed by substrate addition and measured by Ellman's method; format: cell-free
Sequence (P06276 whole entry): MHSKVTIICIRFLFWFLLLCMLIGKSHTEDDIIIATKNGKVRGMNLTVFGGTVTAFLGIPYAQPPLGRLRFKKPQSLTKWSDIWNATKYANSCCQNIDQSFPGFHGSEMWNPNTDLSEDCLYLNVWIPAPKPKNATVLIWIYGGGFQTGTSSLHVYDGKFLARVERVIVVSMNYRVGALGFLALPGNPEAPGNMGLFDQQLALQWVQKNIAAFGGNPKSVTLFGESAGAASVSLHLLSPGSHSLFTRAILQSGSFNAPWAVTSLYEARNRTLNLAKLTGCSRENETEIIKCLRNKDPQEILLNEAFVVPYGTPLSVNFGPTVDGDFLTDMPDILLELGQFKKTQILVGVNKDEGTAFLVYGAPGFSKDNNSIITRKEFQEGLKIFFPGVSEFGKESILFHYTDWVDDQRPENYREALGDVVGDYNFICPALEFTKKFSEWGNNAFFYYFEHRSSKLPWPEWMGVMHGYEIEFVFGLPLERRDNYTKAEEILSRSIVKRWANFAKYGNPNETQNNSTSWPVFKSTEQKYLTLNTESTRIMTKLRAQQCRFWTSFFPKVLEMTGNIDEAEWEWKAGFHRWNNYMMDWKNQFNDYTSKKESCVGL
Parameter measured: Ki (nM)

> print(dat)
                               smiles.entry  units.label  value.observed
1       Cc1ccc(S(=O)(=O)SCc2ccc(C#N)cc2)cc1           nM             201
2            Cc1ccc(S(=O)(=O)SCc2ccccc2)cc1           nM             218
3        COc1ccc(CSS(=O)(=O)c2ccc(C)cc2)cc1           nM             251
4        Cc1ccc(S(=O)(=O)SCc2ccc(Cl)cc2)cc1           nM             199
5         Cc1ccc(S(=O)(=O)SCc2ccc(F)cc2)cc1           nM             208
6  Cc1ccc(S(=O)(=O)SCc2ccc([N+](=O)[O-])cc2)cc1           nM             303
7     Cc1ccc(S(=O)(=O)SCc2ccc(C(C)C)cc2)cc1           nM            37.9
8  Cc1ccc(S(=O)(=O)SCc2ccc(C(F)(F)F)cc2)cc1           nM             103
9  Cc1ccc(S(=O)(=O)SCc2ccc(OC(F)(F)F)cc2)cc1           nM            17.5

Cited source: ChEMBL document CHEMBL4819136
